The origin of these recorded values is ChEMBL document CHEMBL1158874.

Target: Aldehyde dehydrogenase, cytosolic 1 (Rattus norvegicus)
Sequence (P13601 whole entry): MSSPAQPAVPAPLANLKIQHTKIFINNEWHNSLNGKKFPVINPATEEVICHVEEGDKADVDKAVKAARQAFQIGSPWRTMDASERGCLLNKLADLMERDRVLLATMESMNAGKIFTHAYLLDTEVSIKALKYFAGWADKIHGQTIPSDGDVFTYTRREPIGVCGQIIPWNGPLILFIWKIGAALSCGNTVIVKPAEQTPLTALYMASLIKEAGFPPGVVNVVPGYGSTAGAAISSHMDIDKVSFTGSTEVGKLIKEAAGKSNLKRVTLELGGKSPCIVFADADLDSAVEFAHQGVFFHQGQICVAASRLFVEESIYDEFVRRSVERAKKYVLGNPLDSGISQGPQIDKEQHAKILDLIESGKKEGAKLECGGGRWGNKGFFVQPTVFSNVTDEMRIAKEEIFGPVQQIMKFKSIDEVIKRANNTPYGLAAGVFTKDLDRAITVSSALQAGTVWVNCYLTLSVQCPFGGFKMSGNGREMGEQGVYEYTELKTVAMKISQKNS
pIC50: −log10 of the molar value.
quantity kind: pIC50

# compound, test result
data = [
    ("O=C1c2cccc(O)c2C(=O)c2c(O)cc(CO)cc21", 5.22),
]

(I) COc1cc(-c2c(C)cc(O)cc2O[C@@H]2O[C@@H](CO)[C@@H](O)[C@H](O)[C@H]2O)oc(=O)c1
(II) C#CCN(C)Cc1ccccc1
(III) O=C1c2cc(CO)cc(O)c2C(=O)c2c1ccc(C1(C3O[C@H](CO)[C@@H](O)[C@H](O)[C@H]3O)c3cccc(O)c3C(=O)c3c(O)cc(CO)cc31)c2O (some centres undefined)
Ascending by pIC50, please. Reply with the labels, ordered as the question asks.
II, I, III
(II: 3.52, I: 4.57, III: 6.80)

* * *

Biological target: Aldehyde dehydrogenase, mitochondrial (Rattus norvegicus)
Sequence (P11884 whole entry): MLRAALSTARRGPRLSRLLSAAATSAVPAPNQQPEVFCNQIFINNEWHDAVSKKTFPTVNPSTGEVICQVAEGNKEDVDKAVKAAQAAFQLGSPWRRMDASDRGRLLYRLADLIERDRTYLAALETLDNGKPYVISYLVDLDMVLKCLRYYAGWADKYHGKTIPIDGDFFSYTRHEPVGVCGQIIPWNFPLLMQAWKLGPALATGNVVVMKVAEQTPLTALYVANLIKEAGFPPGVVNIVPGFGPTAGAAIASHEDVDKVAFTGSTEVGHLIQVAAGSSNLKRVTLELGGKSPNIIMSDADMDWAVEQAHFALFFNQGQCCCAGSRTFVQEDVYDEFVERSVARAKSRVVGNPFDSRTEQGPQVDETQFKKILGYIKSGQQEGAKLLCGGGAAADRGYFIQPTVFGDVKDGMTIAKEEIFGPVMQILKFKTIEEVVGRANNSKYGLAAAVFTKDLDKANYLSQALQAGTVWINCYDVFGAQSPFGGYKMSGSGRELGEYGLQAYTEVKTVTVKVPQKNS
quantity kind: pIC50
In textbook form, pIC50 equals minus log to base ten of the concentration in mol/L.

Write down pIC50 measured for item O=C1c2cc(CO)cc(O)c2C(=O)c2c1ccc(C1(C3O[C@H](CO)[C@@H](O)[C@H](O)[C@H]3O)c3cccc(O)c3C(=O)c3c(O)cc(CO)cc31)c2O (stereo partly specified)
6.44
